assay-target: D(3) dopamine receptor (Homo sapiens)
Sequence (P35462 whole entry): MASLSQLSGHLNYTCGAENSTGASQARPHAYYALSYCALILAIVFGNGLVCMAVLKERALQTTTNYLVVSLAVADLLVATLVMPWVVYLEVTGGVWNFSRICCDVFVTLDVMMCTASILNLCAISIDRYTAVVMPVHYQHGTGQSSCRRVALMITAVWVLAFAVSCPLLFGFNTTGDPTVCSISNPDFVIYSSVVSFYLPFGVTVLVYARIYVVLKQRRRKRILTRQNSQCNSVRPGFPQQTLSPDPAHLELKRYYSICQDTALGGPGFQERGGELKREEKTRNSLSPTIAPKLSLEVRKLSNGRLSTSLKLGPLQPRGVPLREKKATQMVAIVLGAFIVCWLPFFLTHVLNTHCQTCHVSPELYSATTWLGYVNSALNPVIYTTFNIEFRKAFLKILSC
assay-text: Agonist activity at human D3 dopamine receptor expressed in CHO cells by [35S]GTPgammaS binding assay relative to dopamine
Assay type: functional, cell-based
metric: Emax (%)

CCCN(CCCCCc1ccc(O)c(OC)c1)[C@H]1CCc2nc(N)sc2C1 : 94.4
CCCN(CCC/C=C/c1ccc(O)c(OC)c1)[C@H]1CCc2nc(N)sc2C1 : 87.5
CCCN(CCCCCc1ccc(O)c(O)c1)[C@H]1CCc2c(O)cccc2C1 : 90.9
CCCN(CCCCCc1ccc(O)c(O)c1)[C@H]1CCc2nc(N)sc2C1 : 83.4
CCCN(CCCCCc1cc(O)ccc1O)[C@H]1CCc2nc(N)sc2C1 : 90.9
